# assay-text: Cell respiration assay (MTT)
# Format: cell-based
# run-conditions: rat, aortic smooth muscle cells; read-out: MTT reduction [mean ± SD], of that measured in control cells treated with IL-1 alone
*1 amine or outer side, *2 acyl side, *3 side chain or, on linkers, in order; H or OH if unused. Where a SMILES comes first, the peptide text is derived from it. Bridges are numbered along the chain shown (N, C = ends). Roman numbers before positions name the chains, in order. [ ]: non-standard residue; d: D form. Actinocin(9to1) = Cc1c2oc3c(C)ccc(C(=O)[*:1])c3nc-2c(C(=O)[*:2])c(N)c1=O; NMeV = CN[C@H](C(=O)O)C(C)C; Sar = CNCC(=O)O
result-type: viability

Item: Cc1c2oc3c(C)ccc(C(=O)N[C@@H]4C(=O)N[C@H](C(C)C)C(=O)N5CCC[C@H]5C(=O)N(C)CC(=O)N(C)[C@@H](C(C)C)C(=O)O[C@@H]4C)c3nc-2c(C(=O)N[C@@H]2C(=O)N[C@H](C(C)C)C(=O)N3CCC[C@H]3C(=O)N(C)CC(=O)N(C)[C@@H](C(C)C)C(=O)O[C@@H]2C)c(N)c1=O [dactinomycin] (I: T[dV]P[Sar][NMeV] / II: T[dV]P[Sar][NMeV]; ester I:1-I:C, II:1-II:C; linker I:N-II:N via Actinocin(9to1)) | viability: 101%
